These data points were gathered from patent US20110028509A1.

system: CXCR3 (Homo sapiens)
Sequence (P49682 1-368): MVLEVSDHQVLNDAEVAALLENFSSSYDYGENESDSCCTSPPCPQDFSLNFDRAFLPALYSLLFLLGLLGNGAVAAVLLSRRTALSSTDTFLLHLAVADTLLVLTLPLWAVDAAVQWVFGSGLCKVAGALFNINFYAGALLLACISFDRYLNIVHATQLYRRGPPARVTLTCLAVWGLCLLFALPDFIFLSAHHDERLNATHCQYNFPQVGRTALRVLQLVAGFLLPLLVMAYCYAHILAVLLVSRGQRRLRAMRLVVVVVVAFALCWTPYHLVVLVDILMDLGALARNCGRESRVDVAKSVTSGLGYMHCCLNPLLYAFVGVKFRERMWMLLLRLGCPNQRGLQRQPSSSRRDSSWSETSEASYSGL
protocol-details: CXCR3 Ca2+ mobilization (FLIPR), stable hCXCR3-CHO cell line, I-TAC stimulated
Assay type: cell-based
Design: host or cells: CHO cells stably expressing hCXCR3
condition-details: hCXCR3-CHO cells, I-TAC 100 nM stimulated Ca2+ response; read-out: Ca-ITAC
# log10 IC50 listing for each entry below
measured-parameter: log10 IC50 (log10 of the value in nM)

{"columns": ["compound", "log10 IC50"],
 "data": [
  ["N#Cc1ccc(S(=O)(=O)N(Cc2ccc(C(=O)NC3(c4cccc(C#N)c4)CC3)cc2)Cc2ccccn2)cc1", 1.78],
  ["O=C(NS(=O)(=O)c1cccnc1)c1ccc(CN(Cc2ccccn2)S(=O)(=O)c2ccc(Cl)cc2)cc1", 2.45],
  ["O=C(NCc1ccccc1)c1ccc(CN(Cc2ccc(F)cc2)S(=O)(=O)c2ccc(Cl)cc2)cc1", 3.26],
  ["CC(C)(C)OC(=O)N1C[C@@H]2[C@H](C1)[C@H]2NC(=O)c1ccc(CN(Cc2ccccn2)S(=O)(=O)c2ccc(Cl)cc2)cc1", 1.30],
  ["CCOc1ccc(S(=O)(=O)N(Cc2ccc(C(=O)NC3(c4ccc(OC(F)(F)F)cc4)CC3)cc2)Cc2ccccn2)cc1", 3.88],
  ["COC(=O)C(Cc1ccc(O)cc1)NC(=O)c1ccc(CN(Cc2ccccn2)S(=O)(=O)c2ccc(Cl)cc2)cc1 (stereo not shown)", 4.26],
  ["Cc1cccc(S(=O)(=O)N(Cc2ccc(-c3nnn[nH]3)cc2)Cc2ccccn2)c1", 4.00]
]}
